Hello, the source for this data is patent US9834571B2, in case you need it.

Measured pIC50 by item
- measurement_target: human EGFR (native sequence) (Homo sapiens)
- Sequence (P00533 25-1210): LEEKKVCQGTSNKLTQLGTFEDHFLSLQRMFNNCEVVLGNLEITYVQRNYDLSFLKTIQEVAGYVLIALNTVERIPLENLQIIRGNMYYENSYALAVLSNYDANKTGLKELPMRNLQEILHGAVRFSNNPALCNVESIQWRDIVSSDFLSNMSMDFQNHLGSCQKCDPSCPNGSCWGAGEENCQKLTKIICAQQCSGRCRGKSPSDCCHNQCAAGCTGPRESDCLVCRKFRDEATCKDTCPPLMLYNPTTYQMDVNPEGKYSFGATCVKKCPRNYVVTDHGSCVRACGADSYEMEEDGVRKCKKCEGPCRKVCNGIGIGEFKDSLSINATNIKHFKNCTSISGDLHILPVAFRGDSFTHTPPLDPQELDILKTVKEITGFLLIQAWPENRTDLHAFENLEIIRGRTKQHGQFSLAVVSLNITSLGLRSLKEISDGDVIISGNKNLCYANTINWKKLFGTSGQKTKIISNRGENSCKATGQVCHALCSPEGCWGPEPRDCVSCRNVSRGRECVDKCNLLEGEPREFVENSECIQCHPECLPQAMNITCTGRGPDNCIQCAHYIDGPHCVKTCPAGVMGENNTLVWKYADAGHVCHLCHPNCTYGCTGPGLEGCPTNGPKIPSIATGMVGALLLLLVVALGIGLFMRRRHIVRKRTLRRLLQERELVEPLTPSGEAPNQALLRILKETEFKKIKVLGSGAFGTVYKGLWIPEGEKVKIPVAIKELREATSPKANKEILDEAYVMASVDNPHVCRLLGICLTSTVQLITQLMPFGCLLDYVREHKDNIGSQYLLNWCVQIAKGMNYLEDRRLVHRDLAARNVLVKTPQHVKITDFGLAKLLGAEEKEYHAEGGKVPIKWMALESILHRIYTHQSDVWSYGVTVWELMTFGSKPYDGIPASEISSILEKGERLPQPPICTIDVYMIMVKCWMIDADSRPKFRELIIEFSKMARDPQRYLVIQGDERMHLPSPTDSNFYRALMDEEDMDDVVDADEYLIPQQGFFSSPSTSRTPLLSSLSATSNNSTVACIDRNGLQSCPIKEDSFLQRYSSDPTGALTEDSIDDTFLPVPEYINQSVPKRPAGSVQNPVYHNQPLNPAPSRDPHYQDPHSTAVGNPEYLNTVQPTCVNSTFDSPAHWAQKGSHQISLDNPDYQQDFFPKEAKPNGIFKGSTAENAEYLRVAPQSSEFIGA
- protocol: Kinase inhibitory activity against human EGFR (native sequence)
- Assay type: biochemical
- cond: human EGFR native sequence; 10 μM ATP; read-out: IC50 for kinase inhibition, EGFR
pIC50: −log10 of the molar value.

Reference set, count: 3
Quick check: pIC50 on human EGFR (native sequence) (Homo sapiens), item "COc1ccc(NC(=O)C#CCN(C)C)cc1Nc1ncc(Cl)c(Nc2ccccc2P(C)(C)=O)n1" ?
> 7.30

# iterate: "COc1ccc(NC(=O)C2=CCCCC2)cc1Nc1ncc(Cl)c(Nc2ccccc2P(C)(C)=O)n1"
≤ 6.60

One more compound: C=CC(=O)Nc1cc(Nc2ncc(Cl)c(Nc3ccccc3P(C)(C)=O)n2)c(OC)cc1N1CCC(N2CCC(O)CC2)C1 (stereo not shown)
> 7.30

Shift focus to the following entry.
Form field: pIC50 recorded for "C=CC(=O)Nc1ccc(OC)c(Nc2ncc(Cl)c(Nc3ccc(OCC4CCOCC4)cc3P(C)(C)=O)n2)c1" with human EGFR (native sequence) (Homo sapiens) (enter value)
7.00 to 7.30

###

- measurement_target: BaF3 cells expressing the target EGFR mutations (Homo sapiens, UniProt P00533, T790M, cells depend on it, form not given)
- Construct: IC50, BAF3 EGFR DEL T790M PURO POOL; other: BAF3 EGFR DEL T790M PURO POOL cells, MTT; other: BAF3 EGFR DEL T790M PURO POOL cells; MTT
- Sequence (P00533 with tags, fused parts or gaps DEL746-750/T790M, form open): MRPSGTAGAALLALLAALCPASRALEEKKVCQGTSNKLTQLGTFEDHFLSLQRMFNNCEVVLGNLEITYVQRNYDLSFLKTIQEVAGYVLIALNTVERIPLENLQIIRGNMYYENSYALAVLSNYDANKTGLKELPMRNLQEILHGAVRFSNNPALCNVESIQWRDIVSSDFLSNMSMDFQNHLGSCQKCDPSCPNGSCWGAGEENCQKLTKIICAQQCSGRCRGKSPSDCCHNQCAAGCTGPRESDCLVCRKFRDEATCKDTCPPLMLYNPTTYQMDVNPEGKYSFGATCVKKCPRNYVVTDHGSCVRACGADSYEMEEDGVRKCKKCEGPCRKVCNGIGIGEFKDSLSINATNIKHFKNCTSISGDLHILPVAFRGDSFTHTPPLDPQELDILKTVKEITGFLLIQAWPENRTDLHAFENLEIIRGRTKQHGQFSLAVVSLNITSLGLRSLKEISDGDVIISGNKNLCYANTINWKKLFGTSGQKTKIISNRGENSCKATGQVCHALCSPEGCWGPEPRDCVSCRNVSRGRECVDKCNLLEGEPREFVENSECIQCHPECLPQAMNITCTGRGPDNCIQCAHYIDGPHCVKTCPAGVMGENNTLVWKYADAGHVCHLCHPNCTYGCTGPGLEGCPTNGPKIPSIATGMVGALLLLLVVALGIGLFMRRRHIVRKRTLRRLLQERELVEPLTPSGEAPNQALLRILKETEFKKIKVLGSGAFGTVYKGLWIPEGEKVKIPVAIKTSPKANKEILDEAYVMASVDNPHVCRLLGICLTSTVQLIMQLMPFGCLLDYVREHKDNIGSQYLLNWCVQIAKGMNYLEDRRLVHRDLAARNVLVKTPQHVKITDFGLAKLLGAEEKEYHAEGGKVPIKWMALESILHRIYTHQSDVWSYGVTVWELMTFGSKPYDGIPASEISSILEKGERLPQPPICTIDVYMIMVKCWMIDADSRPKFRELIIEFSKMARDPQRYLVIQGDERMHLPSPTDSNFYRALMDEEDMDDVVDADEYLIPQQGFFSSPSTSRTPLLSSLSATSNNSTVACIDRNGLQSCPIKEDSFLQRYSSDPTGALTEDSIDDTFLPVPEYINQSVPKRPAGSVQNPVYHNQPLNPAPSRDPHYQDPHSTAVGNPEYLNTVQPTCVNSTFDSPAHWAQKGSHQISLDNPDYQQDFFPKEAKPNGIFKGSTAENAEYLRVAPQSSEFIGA
- protocol: Antiproliferative activity (MTT) against BaF3 cells expressing the target EGFR mutations
- Assay type: cell-based
- cond: BAF3 EGFR DEL T790M PURO POOL cells, read-out: IC50, BAF3 EGFR DEL T790M PURO POOL
- Experimental: We also assessed the antiproliferative activity of compounds of Formula (I) against BaF3 cells expressing the target EGFR mutations or control (i.e., cell lines expressing wildtype EGFR). Assays were conducted using MTT.
We begin with a simple list: items and their reported GI50.

Example compounds with recorded GI50:
Which GI50 value is on record for "C=CC(=O)Nc1cc(Nc2ncc(Cl)c(Nc3ccccc3P(C)(C)=O)n2)c(OC)cc1C(=O)N1CCN(C)CC1" ?
≥ 250 nM

What would you report for C=CC(=O)Nc1cc(Nc2ncc(Cl)c(Nc3ccccc3P(C)(C)=O)n2)c(OC)cc1OC1CCN(C)C1 (centres unmarked) ?
< 50 nM

Next:
# query: GI50 of entry "COc1ccc(NC(=O)/C=C/Cl)cc1Nc1ncc(Cl)c(Nc2ccccc2P(C)(C)=O)n1"
< 50 nM

Next compound: C=CC(=O)Nc1cc(Nc2ncc(Cl)c(Nc3ccccc3P(C)(C)=O)n2)c(OC)cc1N1CCC(N2CCC2)C1 (centres unmarked)
< 50 nM

Cool, now "COc1ccc(NC(=O)/C=C/C2(N)CC2)cc1Nc1ncc(Cl)c(Nc2ccccc2P(C)(C)=O)n1"
≥ 250 nM

Entry to check: "C=CC(=O)Nc1ccc(OC)c(Nc2ncc(Cl)c(Nc3cnccc3P(C)(C)=O)n2)c1"
101 to 250 nM

Next compound up: C=CC(=O)Nc1cc(Nc2ncc(Cl)c(Nc3ccccc3P(C)(C)=O)n2)c(OC)cc1N1CCC(N)C1 (centres unmarked)
≥ 250 nM

# iterate: C=CC(=O)Nc1cc(Nc2ncc(Cl)c(Nc3ccccc3P(C)(C)=O)n2)c(OC)cc1O[C@@H]1CCCN(C)C1 (single isomer, unassigned)
< 50 nM

Lookup C=CC(=O)Nc1cc(Nc2ncc(Cl)c(Nc3ccccc3P(C)(C)=O)n2)c(OC)cc1N1CCC(N2CCC(O)CC2)C1 (centres unmarked)
101 to 250 nM

Cool, now C=CC(=O)Nc1cc(Nc2ncc(Cl)c(Nc3ccccc3P(C)(C)=O)n2)c(OC)cc1OC(COC)CN(C)C (centres unmarked)
< 50 nM

What do you get for C=CC(=O)Nc1cc(Nc2ncc(Cl)c(Nc3ccccc3P(C)(C)=O)n2)c(OC)cc1OC(COCC)CN(C)C (centres unmarked) ?
< 50 nM

Now the same for "C=C(CN1CCOCC1)C(=O)Nc1ccc(OC)c(Nc2ncc(Cl)c(Nc3ccccc3P(C)(C)=O)n2)c1"
< 50 nM

What about "C=CC(=O)Nc1cc(Nc2ncc(Cl)c(Nc3ccccc3P(C)(C)=O)n2)c(OC)cc1C#CCN1CCCCCC1" ?
< 50 nM

Follow-up item: "C=C(CN1CCN(CCO)CC1)C(=O)Nc1ccc(OC)c(Nc2ncc(Cl)c(Nc3ccccc3P(C)(C)=O)n2)c1"
< 50 nM

Repeat with "C=CC(=O)Nc1cc(Nc2ncc(Cl)c(Nc3ccccc3P(C)(C)=O)n2)c(OC)cc1CN1CCN(C)CC1"
< 50 nM

Another compound to look at: "COc1ccc(NC(=O)CF)cc1Nc1ncc(Cl)c(Nc2ccccc2P(C)(C)=O)n1"
≥ 250 nM

Follow-up entry: "C=CC(=O)Nc1cc(Nc2ncc(Cl)c(Nc3ccccc3P(C)(C)=O)n2)c(OC)cc1C#CC(C)(C)N(CC)CC"
< 50 nM

Now give it for "C=C(CN1CCNC(=O)C1)C(=O)Nc1ccc(OC)c(Nc2ncc(Cl)c(Nc3ccccc3P(C)(C)=O)n2)c1" too.
101 to 250 nM

Same read-out for "C=CC(=O)Nc1cc(Nc2ncc(Cl)c(Nc3ccccc3P(C)(C)=O)n2)c(OC)cc1N1CCCN(C)CC1" ?
< 50 nM

Entry to check: C=CC(=O)Nc1cc(Nc2ncc(Cl)c(Nc3ccccc3P(C)(C)=O)n2)c(OC)cc1N1CCC(N2CCCCC2)C1 (centres unmarked)
< 50 nM

Moving on to the next compound: "CC#CC(=O)Nc1cc(Nc2ncc(Cl)c(Nc3ccccc3P(C)(C)=O)n2)c(OC)cc1OCC1CCOCC1"
< 50 nM

Now consider "COc1ccc(NC(=O)/C=C\C(=O)N(C)C)cc1Nc1ncc(Cl)c(Nc2ccccc2P(C)(C)=O)n1" and answer again.
≥ 250 nM

What do you get for "COc1ccc(NC(=O)C2=CCCCC2)cc1Nc1ncc(Cl)c(Nc2ccccc2P(C)(C)=O)n1" ?
≥ 250 nM

Now the same for C=CC(=O)Nc1cc(Nc2ncc(Cl)c(Nc3ccccc3P(C)(C)=O)n2)c(OC)cc1N1CCC(N(C)CCOC)C1 (centres unmarked)
< 50 nM
